These measurements were taken from patent US8252781B2.

# ASSAY TARGET: human 11β-HSD1 (Homo sapiens, UniProt P28845)
# Construct: The obtained PCR products of about 0.9 kbp, 1.2 kbp, and 0.9 kbp were subcloned into an expression vector pcDNA3.1+/Zeo; expressed in transfected cells
# Sequence (P28845 whole entry): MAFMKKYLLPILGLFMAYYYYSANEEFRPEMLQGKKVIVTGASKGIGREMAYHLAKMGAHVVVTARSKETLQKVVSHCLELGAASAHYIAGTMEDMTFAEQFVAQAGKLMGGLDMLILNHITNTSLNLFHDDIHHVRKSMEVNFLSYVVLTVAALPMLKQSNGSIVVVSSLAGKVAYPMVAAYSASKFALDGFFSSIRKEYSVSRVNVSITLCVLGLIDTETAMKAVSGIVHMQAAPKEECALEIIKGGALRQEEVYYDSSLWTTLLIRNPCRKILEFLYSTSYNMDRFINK
# ASSAY TEXT: Enzyme inhibitory activity, human 11β-HSD1 (lysate of stably expressing HEK293 cells, cortisol by competitive ELISA)
# Assay type: biochemical
# CONDITION PARAMETERS: Table 2; human 11β-HSD1, cell lysate, 37° C. for 1 hour; read-out: h HSD1 in vitro assay (IC50 uM)
MEASUREMENT LABEL: log10 IC50 (log10 of the value in µM)

* Cc1ccc(CN2N(C3C4CC5CC(C4)CC3C5)C(=O)C2(C)C)cc1 (stereo not drawn) [Example 14] | -0.08
* CC1(C)C(=O)N(C2CCCCCCC2)N1Cc1cc(Cl)ccc1Cl [Example 75] | -1.42
* Cc1cccc(C(=O)N2N(C3C4CC5CC(C4)CC3C5)C(=O)C2(C)C)c1 (stereo not drawn) [Example 109] | -0.12
* CC1(C)C(=O)N(C2C3CC4CC(C3)CC2C4)N1Cc1ccc(F)cc1 (stereo not drawn) [Example 15] | -0.44
* CC1(C)C(=O)N(C2C3CC4CC(C3)CC2C4)N1Cc1ccc([N+](=O)[O-])cc1 (stereo not drawn) [Example 31] | -0.02
* CC1(C)C(=O)N(C2C3CC4CC2CC(C(N)=O)(C4)C3)N1c1cccc2ccccc12 (stereo not drawn) [Example 273] | -1.70
* CC1(C)C(=O)N(C2C3CC4CC(C3)CC2C4)N1Cc1cccc(Br)c1 (stereo not drawn) [Example 33] | -0.42
* CC1(C)C(=O)N(C2C3CC4CC(C3)CC2C4)N1C(=O)c1ccc2c(c1)OCO2 (stereo not drawn) [Example 135] | -0.12
* CC1(C)C(=O)N(C2C3CC4CC(C3)CC2C4)N1Cc1ccc(F)cc1Cl (stereo not drawn) [Example 45] | -1.10

---

# ASSAY TARGET: human 11β-HSD1 (Homo sapiens, UniProt P28845)
# Construct: The obtained PCR products of about 0.9 kbp, 1.2 kbp, and 0.9 kbp were subcloned into an expression vector pcDNA3.1+/Zeo; expressed in transfected cells
# ASSAY TEXT: Enzyme inhibitory activity, human 11β-HSD1 (lysate of stably expressing HEK293 cells, cortisol by competitive ELISA)
# Assay type: biochemical
# CONDITION PARAMETERS: Table 2; human 11β-HSD1, cell lysate, 37° C. for 1 hour; read-out: h HSD1 in vitro assay (IC50 uM)
# Description: 1. Human 11β-HSD1-, Human 11β-HSD2- and Mouse 11β-HSD1-Gene Clonings and Establishment of Stably Expressing Cells […] An enzymatic reaction was conducted using a polystyrene 96-well plate. […] Cortisol that was present in the reaction solution was determined by a competitive ELISA shown below. […]
MEASUREMENT LABEL: IC50

• Cc1cccc(CN2N(C3C4CC5CC(C4)CC3C5)C(=O)C2(C)C)c1 (centres unmarked) = 0.25 µM
• CC1C(=O)N(C2C3CC4CC(C3)CC2C4)N1Cc1ccc(Cl)cc1 (centres unmarked) = 0.68 µM
• COc1cccc(CN2N(C3C4CC5CC(C4)CC3C5)C(=O)C2(C)C)c1 (centres unmarked) = 0.3 µM
• CC1(C)C(=O)N(C2C3CC4CC(C3)CC2C4)N1Cc1ccccc1F (centres unmarked) = 0.26 µM
• Cc1cccc(N2N(C3C4CC5CC(C4)CC3C5)C(=O)C2(C)C)c1 (centres unmarked) = 0.86 µM
